biological target: human cancer-specific MUC1 peptide (PTL 1) (human); experiment: ELISA, immobilised MUC1 peptide (Example 6-2)
Sequence (main, as listed by the source): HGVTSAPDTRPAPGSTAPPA
test-readout: pEC50
Please note pEC50 is a logarithmic value: minus log10 of concentration in mol/L. Answer with that number alone.

// known answers, use as guide
INSERT INTO measurements (binder, result_number) VALUES
  ('([Gd/DOTA-[2,5-(1,2,3,4-tetrahydroisoquinoline)]-C(═O)-Met-Gly-Lys*-C(═S)-NH-(1,4-Ph)-NH-C(═S)]p-Fab^5) (Fab, V domains shown, labeling portion on p amino groups of the Fab; chain and sites not stated) VH: QVQLVQSGAEVKKPGASVKVSCKASGYTFTNYGLSWVRQAPGQGLEWMGENHPGSGIIYHNEKFRGRVTLTADRSTSTAYMELSSLRSEDTAVYYCARSSGTRGFDYWGQGTLVTVSS VL: DVVMTQTPLSLSVTPGQPASISCRSSQSIVHSNGNTYLEWYLQKPGQSPQLLIYRVSNRFSGVPDRFSGSGSGTDFTLKISRVEAEDVGVYYCFQGSHGPWTFGQGTKLEIKR', 9.72),
  ('([Gd/DOTA-NH-CH2-(1,4-Ph)-NH-C(═O)-Met-Ile-NH-(CH2)2-Z1(#S)]p-Fab^5) (Fab, V domains shown, labeling portion on p amino groups of the Fab; chain and sites not stated) VH: QVQLVQSGAEVKKPGASVKVSCKASGYTFTNYGLSWVRQAPGQGLEWMGENHPGSGIIYHNEKFRGRVTLTADRSTSTAYMELSSLRSEDTAVYYCARSSGTRGFDYWGQGTLVTVSS VL: DVVMTQTPLSLSVTPGQPASISCRSSQSIVHSNGNTYLEWYLQKPGQSPQLLIYRVSNRFSGVPDRFSGSGSGTDFTLKISRVEAEDVGVYYCFQGSHGPWTFGQGTKLEIKR', 10.05),
  ('Ex-No 108, conjugate with Fab^5 that does not contain a peptide linker (structure only as drawing CHEM-US-00162) (Fab, V domains shown, labeling portion on p amino groups of the Fab; chain and sites not stated) VH: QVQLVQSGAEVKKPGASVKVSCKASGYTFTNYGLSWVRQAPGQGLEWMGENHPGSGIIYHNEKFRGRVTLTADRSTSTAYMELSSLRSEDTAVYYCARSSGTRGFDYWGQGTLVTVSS VL: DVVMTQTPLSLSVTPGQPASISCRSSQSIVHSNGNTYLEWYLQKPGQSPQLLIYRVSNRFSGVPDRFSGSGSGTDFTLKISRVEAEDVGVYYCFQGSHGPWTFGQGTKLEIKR', 10.15);

Look at this binder and give its reported pEC50. ([Gd/DOTA-NH-CH2-(1,4-Ph)-NH-C(═O)-Met-Ile-NH-(CH2)2-Z1(#N)]p-Fab^5) (Fab, V domains shown, labeling portion on p amino groups of the Fab; chain and sites not stated) VH: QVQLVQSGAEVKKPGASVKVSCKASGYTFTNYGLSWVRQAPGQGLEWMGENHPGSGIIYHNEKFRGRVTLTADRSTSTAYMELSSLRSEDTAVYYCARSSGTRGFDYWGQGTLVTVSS VL: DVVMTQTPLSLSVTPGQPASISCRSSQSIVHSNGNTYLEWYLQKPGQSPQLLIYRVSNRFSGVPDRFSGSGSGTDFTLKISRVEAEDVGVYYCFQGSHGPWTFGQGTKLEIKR 10.10
